biological target: EGFR L858R/T790M/C797S (BaF3-LTC cells) (Homo sapiens, UniProt P00533, C797S/L858R/T790M); construct: expressed in transfected cells; host or cells: BaF3; assay: EGFR degradation HTRF assay, BaF3-LTC cells; format: cell-based; conditions: BaF3-LTC cells; EGFR degradation, IC50 (DC50) from curve fit; read-out: DC50(nM) BaF3-LTC
Sequence (P00533 25-1210 T790M/C797S/L858R): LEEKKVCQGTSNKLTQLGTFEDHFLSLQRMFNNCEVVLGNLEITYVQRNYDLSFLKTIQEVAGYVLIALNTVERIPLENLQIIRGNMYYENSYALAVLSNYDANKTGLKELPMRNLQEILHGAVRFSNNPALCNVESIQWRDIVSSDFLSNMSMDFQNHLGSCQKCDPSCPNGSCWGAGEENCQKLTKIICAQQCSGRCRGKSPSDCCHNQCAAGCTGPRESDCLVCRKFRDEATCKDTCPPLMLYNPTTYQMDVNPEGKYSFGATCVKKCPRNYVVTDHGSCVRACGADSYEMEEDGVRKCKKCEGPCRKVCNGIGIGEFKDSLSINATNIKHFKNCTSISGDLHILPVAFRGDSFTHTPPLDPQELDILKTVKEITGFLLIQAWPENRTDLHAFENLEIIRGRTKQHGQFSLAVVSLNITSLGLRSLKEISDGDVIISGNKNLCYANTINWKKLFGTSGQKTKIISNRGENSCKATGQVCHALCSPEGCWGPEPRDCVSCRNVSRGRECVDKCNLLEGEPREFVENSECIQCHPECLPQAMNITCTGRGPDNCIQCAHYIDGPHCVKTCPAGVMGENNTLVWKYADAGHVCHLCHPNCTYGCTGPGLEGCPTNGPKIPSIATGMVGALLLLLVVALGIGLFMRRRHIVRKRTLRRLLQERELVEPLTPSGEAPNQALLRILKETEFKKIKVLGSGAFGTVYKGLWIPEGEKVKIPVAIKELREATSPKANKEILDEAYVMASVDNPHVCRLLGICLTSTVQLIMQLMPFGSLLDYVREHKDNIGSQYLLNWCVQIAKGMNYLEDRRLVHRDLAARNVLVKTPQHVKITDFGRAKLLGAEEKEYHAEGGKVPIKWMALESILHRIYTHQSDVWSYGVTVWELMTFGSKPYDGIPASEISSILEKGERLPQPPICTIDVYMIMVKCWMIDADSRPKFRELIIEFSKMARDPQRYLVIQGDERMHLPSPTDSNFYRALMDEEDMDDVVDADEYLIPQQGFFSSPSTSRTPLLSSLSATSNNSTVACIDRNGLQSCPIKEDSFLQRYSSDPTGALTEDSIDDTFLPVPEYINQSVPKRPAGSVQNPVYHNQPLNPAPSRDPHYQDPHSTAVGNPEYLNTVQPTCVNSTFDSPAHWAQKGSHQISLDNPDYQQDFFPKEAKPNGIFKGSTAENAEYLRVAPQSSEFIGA
I'd appreciate it if you marked entries 1.0 when DC50 is lower than 3 nM and 0.0 when it is not.

Below 3 nM on DC50? Entry `CCc1cc(Nc2ncc(Br)c(Nc3ccc4c(=O)n(C5CC5)ncc4c3P(C)(C)=O)n2)c(OC)cc1N1CCC(N2CCN(C(=O)[C@@H]3CCN(c4cc(F)c([C@H]5CCC(=O)NC5=O)c(F)c4)C3)CC2)CC1`
0.0

Below 3 nM on DC50? Entry CCc1cc(Nc2ncc(Br)c(Nc3ccc4c(=O)n(C5CC5)ncc4c3P(C)(C)=O)n2)c(OC)cc1N1CCC(N2CCN(CCc3ccc4c(c3)oc(=O)n4C3CCC(=O)NC3=O)CC2)CC1 (centres unmarked)
1.0

Below 3 nM on DC50? Entry CCOc1cc(N2CCC(N3CCN(CCc4cc5oc(=O)n(C6CCC(=O)NC6=O)c5cc4F)CC3)CC2)c(CC)cc1Nc1ncc(Br)c(Nc2ccc3c(=O)n(CC)ncc3c2P(C)(C)=O)n1 (centres unmarked)
0.0

Below 3 nM on DC50? Entry `CCc1cc(Nc2ncc(Br)c(Nc3ccc4nc(C)c(F)cc4c3P(C)(C)=O)n2)c(OC)cc1N1CCC(N2CCN(C(=O)[C@@H]3CCN(c4cc(F)c([C@H]5CCC(=O)NC5=O)c(F)c4)C3)CC2)CC1`
0.0

Below 3 nM on DC50? Entry CCOc1cc(N2CCC(N3CCN(CCc4c(F)ccc5c4oc(=O)n5C4CCC(=O)NC4=O)CC3)CC2)c(CC)cc1Nc1ncc(Br)c(Nc2cc(F)c3nc(CC)ccc3c2P(C)(C)=O)n1 (centres unmarked) [Example 595]
0.0

====

system: EGFR Del19/T790M/C797S (H1975-clone #28); experiment: EGFR degradation HTRF assay, H1975-clone #28 DTC cells; assay type: cell-based; details: H1975 # 28 DTC cells; maximum percentage of inhibition (degradation)
For each entry below, report its Dmax (%) H1975 # 28 DTC value.
Numeric only. Scale: %

Need Dmax (%) H1975 # 28 DTC of CCOc1cc(N2CCC(N3CCN(CCc4cc(F)c([C@H]5CCC(=O)NC5=O)c(F)c4)CC3)CC2)c(CC)cc1Nc1nccc(Nc2ccc3nc(CC)ncc3c2P(C)(C)=O)n1 [Example 749] , thanks.
66.03

Need Dmax (%) H1975 # 28 DTC of CCc1ccc2c(P(C)(C)=O)c(Nc3nc(Nc4cc(CC)c(N5CCC(N6CCN(CCc7cc(F)c([C@H]8CCC(=O)NC8=O)c(F)c7)CC6)CC5)cc4OC4CC4)ncc3Br)ccc2n1 [Example 547] , thanks.
87.96

Need Dmax (%) H1975 # 28 DTC of CCc1cc(Nc2ncc(Br)c(Nc3ccc4c(=O)n(CC)ncc4c3P(C)(C)=O)n2)c(OC)cc1N1CCC(N2CCN(C(=O)[C@@H]3CCN(c4cc(F)c([C@H]5CCC(=O)NC5=O)c(F)c4)C3)CC2)CC1 [Example 673] , thanks.
85.2

Need Dmax (%) H1975 # 28 DTC of CCOc1cc(N2CCC(N3CCN(C(=O)[C@@H]4CCN(c5cc(F)c([C@H]6CCC(=O)NC6=O)c(F)c5)C4)CC3)CC2)c(C)cc1Nc1ncc(Br)c(Nc2ccc3c(=O)n(C)ncc3c2P(C)(C)=O)n1 [Example 529] , thanks.
85.06

Need Dmax (%) H1975 # 28 DTC of CCOc1cc(N2CCC(N3CCN(CCc4cc(F)c([C@H]5CCC(=O)NC5=O)c(F)c4)CC3)CC2)c(CC)cc1Nc1ncc(Br)c(Nc2ccc3nc(C)c(F)cc3c2P(C)(C)=O)n1 [Example 728] , thanks.
87.57

====

target: EGFR L858R/T790M/C797S (BaF3-LTC cells) (Homo sapiens, UniProt P00533, C797S/L858R/T790M); construct: expressed in transfected cells; host or cells: BaF3; assay: EGFR degradation HTRF assay, BaF3-LTC cells; format: cell-based; settings: BaF3-LTC, 16h treatment; read-out: LTC DC50
For each entry below, report its DC50 value.
Numeric only. Scale: nM

Record lookup: for EGFR L858R/T790M/C797S (BaF3-LTC cells) (Homo sapiens, UniProt P00533, C797S/L858R/T790M), what DC50 belongs to CCc1cc(Nc2ncc(Br)c(Nc3ccc4nccnc4c3P(C)(C)=O)n2)c(OC)cc1N1CCC(N2C[C@@H](C)N(CC3CN(c4ccc5c(c4)C(=O)N(C4CCC(=O)NC4=O)C5=O)C3)[C@@H](C)C2)CC1 (some centres unmarked) ?
16.1

Record lookup: for EGFR L858R/T790M/C797S (BaF3-LTC cells) (Homo sapiens, UniProt P00533, C797S/L858R/T790M), what DC50 belongs to CCc1cc(Nc2ncc(Br)c(Nc3ccc4nccnc4c3P(C)(C)=O)n2)c(OC)cc1N1CCC(N2CCN(C(=O)C3CCN(c4ccc5c(c4)C(=O)N(C4CCC(=O)NC4=O)C5=O)CC3)CC2)CC1 (centres unmarked) ?
13.3

Record lookup: for EGFR L858R/T790M/C797S (BaF3-LTC cells) (Homo sapiens, UniProt P00533, C797S/L858R/T790M), what DC50 belongs to CCc1cc(Nc2ncc(Br)c(Nc3ccc4nccnc4c3P(C)(C)=O)n2)c(OC)cc1N1CCC(N2CCN(CCc3ccc(C4CCC(=O)NC4=O)c(F)c3)[C@@H](COC)C2)CC1 (some centres unmarked) ?
43.7

Record lookup: for EGFR L858R/T790M/C797S (BaF3-LTC cells) (Homo sapiens, UniProt P00533, C797S/L858R/T790M), what DC50 belongs to CCc1cc(Nc2ncc(Br)c(Nc3ccc4nccnc4c3P(C)(C)=O)n2)c(OC)cc1N1CCC(N2CCN(CCc3ccc(C4CCC(=O)NC4=O)c(F)c3)CC2)CC1 (centres unmarked) ?
13.1

Record lookup: for EGFR L858R/T790M/C797S (BaF3-LTC cells) (Homo sapiens, UniProt P00533, C797S/L858R/T790M), what DC50 belongs to CCc1cc(Nc2ncc(Br)c(Nc3ccc4nccnc4c3P(C)(C)=O)n2)c(OC)cc1N1CCC(N2CCN(C(=O)[C@@H]3CCN(c4cc(F)c(C5CCC(=O)NC5=O)c(F)c4)C3)CC2)CC1 (some centres unmarked) ?
17.3

====

For each entry below, report its Dmax value.
molecular target: EGFR WT (BaF3 WT cells) (Homo sapiens); construct: expressed in transfected cells; host or cells: BaF3; assay: EGFR degradation HTRF assay, BaF3 WT cells; format: cell-based; settings: BaF3 WT, 16h treatment, maximum percentage of degradation; read-out: WT Dmax (%)
Sequence (P00533 25-1210): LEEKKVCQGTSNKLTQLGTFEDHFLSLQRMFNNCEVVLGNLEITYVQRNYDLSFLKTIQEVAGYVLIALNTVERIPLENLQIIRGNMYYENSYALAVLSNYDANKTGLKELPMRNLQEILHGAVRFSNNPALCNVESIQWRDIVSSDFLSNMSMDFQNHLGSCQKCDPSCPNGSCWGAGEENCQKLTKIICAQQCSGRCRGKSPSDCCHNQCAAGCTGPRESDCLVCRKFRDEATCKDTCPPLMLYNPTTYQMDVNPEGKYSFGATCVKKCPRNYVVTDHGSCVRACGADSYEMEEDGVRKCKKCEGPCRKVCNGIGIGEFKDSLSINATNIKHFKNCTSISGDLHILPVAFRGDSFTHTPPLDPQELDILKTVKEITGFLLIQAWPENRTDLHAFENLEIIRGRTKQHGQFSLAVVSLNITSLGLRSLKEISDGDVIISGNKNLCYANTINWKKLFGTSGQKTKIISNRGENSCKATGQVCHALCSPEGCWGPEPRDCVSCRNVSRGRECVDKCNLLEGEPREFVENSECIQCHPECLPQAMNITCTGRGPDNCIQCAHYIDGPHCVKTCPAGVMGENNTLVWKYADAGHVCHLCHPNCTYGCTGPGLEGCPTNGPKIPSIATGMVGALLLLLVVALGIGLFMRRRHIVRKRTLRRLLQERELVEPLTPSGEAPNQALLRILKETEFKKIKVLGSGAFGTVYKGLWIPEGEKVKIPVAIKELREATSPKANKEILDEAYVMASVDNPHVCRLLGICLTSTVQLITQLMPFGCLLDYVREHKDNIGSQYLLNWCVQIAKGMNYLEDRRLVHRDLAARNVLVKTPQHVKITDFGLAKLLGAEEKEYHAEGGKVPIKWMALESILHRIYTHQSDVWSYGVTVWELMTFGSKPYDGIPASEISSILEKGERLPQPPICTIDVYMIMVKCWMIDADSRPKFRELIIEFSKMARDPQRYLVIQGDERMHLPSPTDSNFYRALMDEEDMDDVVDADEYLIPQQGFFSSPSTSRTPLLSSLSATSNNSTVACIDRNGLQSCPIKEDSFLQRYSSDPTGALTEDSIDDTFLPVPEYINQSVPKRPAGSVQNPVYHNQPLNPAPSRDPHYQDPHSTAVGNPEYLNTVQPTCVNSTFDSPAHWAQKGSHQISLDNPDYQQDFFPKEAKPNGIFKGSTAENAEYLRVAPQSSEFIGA

Record lookup: for EGFR WT (BaF3 WT cells) (Homo sapiens), what Dmax belongs to CCc1cc(Nc2ncc(Br)c(Nc3ccc4nccnc4c3P(C)(C)=O)n2)c(OC)cc1N1CCC(N2CCN(CCCCCc3ccc(C4CCC(=O)NC4=O)cc3)CC2)CC1 (centres unmarked) ?
41.9%

Record lookup: for EGFR WT (BaF3 WT cells) (Homo sapiens), what Dmax belongs to CCc1cc(Nc2ncc(Br)c(Nc3ccc4nccnc4c3P(C)(C)=O)n2)c(OC)cc1N1CCC(N2CCN(C(=O)C3CCN(CC4CCN(c5ccc6c(c5)C(=O)N(C5CCC(=O)NC5=O)C6=O)CC4)CC3)CC2)CC1 (centres unmarked) ?
3.27%

Record lookup: for EGFR WT (BaF3 WT cells) (Homo sapiens), what Dmax belongs to CCc1cc(Nc2ncc(Br)c(Nc3ccc4nccnc4c3P(C)(C)=O)n2)c(OC)cc1N1CCC(N2CCN(C(=O)CCN3CCN(c4ccc5c(c4)C(=O)N(C4CCC(=O)NC4=O)C5=O)CC3)CC2)CC1 (centres unmarked) ?
22.2%

Record lookup: for EGFR WT (BaF3 WT cells) (Homo sapiens), what Dmax belongs to CCc1cc(Nc2ncc(Br)c(Nc3ccc4nccnc4c3P(C)(C)=O)n2)c(OC)cc1N1CCC(N2CCN(CCc3ccc(C4CCC(=O)NC4=O)cc3)CC2)CC1 (centres unmarked) ?
49.2%

Record lookup: for EGFR WT (BaF3 WT cells) (Homo sapiens), what Dmax belongs to CCc1cc(Nc2ncc(Br)c(Nc3ccc4nccnc4c3P(C)(C)=O)n2)c(OC)cc1N1CCC(N2CCN(CCC3CCN(c4ccc5c(c4)CN(C4CCC(=O)NC4=O)C5=O)CC3)CC2)CC1 (centres unmarked) ?
26.1%

====

target: EGFR L858R/T790M (H1975-clone #36, homozygous) (Homo sapiens, UniProt P00533, L858R/T790M); construct: designed to specifically target WT EGFR but preserve the L858R/T790M copy; host or cells: H1975-clone #36; experiment: EGFR degradation HTRF assay, H1975-clone #36 cells; type: cell-based; details: H1975 #36, 16h treatment
Sequence (P00533 25-1210 T790M/L858R): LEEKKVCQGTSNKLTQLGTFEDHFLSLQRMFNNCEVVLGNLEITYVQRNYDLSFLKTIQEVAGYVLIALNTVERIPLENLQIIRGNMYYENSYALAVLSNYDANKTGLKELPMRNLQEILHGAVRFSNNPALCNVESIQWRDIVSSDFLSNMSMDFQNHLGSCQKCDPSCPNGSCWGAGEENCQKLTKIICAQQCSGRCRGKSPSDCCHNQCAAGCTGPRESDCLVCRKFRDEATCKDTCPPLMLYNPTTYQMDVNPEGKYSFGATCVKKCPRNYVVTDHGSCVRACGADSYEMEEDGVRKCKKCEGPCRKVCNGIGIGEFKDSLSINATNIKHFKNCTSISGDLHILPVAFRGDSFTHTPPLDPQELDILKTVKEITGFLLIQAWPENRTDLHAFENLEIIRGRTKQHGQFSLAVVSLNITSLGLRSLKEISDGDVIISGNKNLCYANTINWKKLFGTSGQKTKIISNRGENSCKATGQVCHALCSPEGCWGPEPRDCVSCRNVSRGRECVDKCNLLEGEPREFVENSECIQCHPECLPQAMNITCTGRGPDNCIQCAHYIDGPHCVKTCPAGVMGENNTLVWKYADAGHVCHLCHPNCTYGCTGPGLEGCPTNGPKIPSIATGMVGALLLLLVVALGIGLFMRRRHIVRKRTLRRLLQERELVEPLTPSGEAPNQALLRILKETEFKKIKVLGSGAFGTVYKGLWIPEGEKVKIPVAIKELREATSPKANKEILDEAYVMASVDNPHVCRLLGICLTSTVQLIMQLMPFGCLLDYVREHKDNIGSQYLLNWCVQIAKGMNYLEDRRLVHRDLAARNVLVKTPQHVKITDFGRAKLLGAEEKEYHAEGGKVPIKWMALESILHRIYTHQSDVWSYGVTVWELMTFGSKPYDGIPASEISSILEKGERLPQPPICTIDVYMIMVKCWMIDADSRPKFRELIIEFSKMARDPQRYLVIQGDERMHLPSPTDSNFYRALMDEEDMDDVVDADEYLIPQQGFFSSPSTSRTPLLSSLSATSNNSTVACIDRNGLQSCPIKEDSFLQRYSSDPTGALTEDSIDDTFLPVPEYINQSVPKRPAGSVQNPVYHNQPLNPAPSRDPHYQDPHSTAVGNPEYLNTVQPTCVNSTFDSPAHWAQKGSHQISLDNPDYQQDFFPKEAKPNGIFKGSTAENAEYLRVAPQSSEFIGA
Structures can show the parent of a compound that is named as a salt.
DC50 class ranges: A = under 5 nM, B = from 5 nM up to 7 nM, C = 7 nM and over

Which DC50 band matches CCc1cc(Nc2ncc(Br)c(Nc3ccc4nccnc4c3P(C)(C)=O)n2)c(OC)cc1N1CCC(N2CCN(CCc3ccc(C4CCC(=O)NC4=O)c(F)c3)CC2)CC1 (centres unmarked) [Example 5] ?
A

Which DC50 band matches COc1cc(N2CCC(N3CCN(CCC4CCN(c5ccc(C6CCC(=O)NC6=O)cc5)CC4)CC3)CC2)ccc1Nc1ncc(Cl)c(Nc2ccccc2P(C)(C)=O)n1 (centres unmarked) [Example 106] ?
C

Which DC50 band matches COc1cc(N2CCC(N3CCN(CCc4ccc(NC5CCC(=O)NC5=O)cc4)CC3)CC2)ccc1Nc1ncc(Cl)c(Nc2ccccc2NS(C)(=O)=O)n1 (centres unmarked) [Example 140] ?
B

Which DC50 band matches CCc1cc(Nc2ncc(Br)c(Nc3ccc4nccnc4c3P(C)(C)=O)n2)c(OC)cc1N1CCC(N2CCN(C3CC(c4ccc5c(c4)C(C)(C)C(=O)N5C4CCC(=O)NC4=O)C3)CC2)CC1 (centres unmarked) [Example 317] ?
C

Which DC50 band matches COc1cc(N2CCC(N3CCN(CCc4ccc(NC5CCC(=O)NC5=O)cc4)CC3)CC2)ccc1Nc1ncc(Cl)c(Nc2ccccc2N(C)S(C)(=O)=O)n1 (centres unmarked) [Example 126] ?
A

Which DC50 band matches COc1cc(N2CCC(N(C)CC3CCN(c4ccc(N5CCC(=O)NC5=O)c(F)c4)CC3)CC2)c(C)cc1Nc1ncc(Br)c(Nc2ccc3nccnc3c2P(C)(C)=O)n1 [Example 81] ?
C

Which DC50 band matches CCc1cc(Nc2ncc(Br)c(Nc3ccc4nccnc4c3P(C)(C)=O)n2)c(OC)cc1N1CCC(N2CCN(C(=O)C3CCN(c4ccc5c(c4)C(=O)N(C4CCC(=O)NC4=O)C5=O)CC3)CC2)CC1 (centres unmarked) [Example 67] ?
C

Which DC50 band matches COc1cc(N2CCN(CC3CCN(c4ccc(N5CCC(=O)NC5=O)cc4C)CC3)CC2)c(C)cc1Nc1ncc(Br)c(Nc2ccc3nccnc3c2P(C)(C)=O)n1 [Example 98] ?
C

Which DC50 band matches CCc1cc(Nc2ncc(Br)c(Nc3ccc4nccnc4c3P(C)(C)=O)n2)c(OC)cc1N1CCC(N2CCN(C(=O)CC3CCN(c4ccc(C5CCC(=O)NC5=O)cc4)CC3)CC2)CC1 (centres unmarked) [Example 24] ?
B

Which DC50 band matches CCc1cc(Nc2ncc(Br)c(Nc3ccc4nccnc4c3P(C)(C)=O)n2)c(OC)cc1N1CCC(N2CCN(CCc3ccc(C4CCC(=O)NC4=O)c(C)c3)CC2)CC1 (centres unmarked) [Example 3] ?
C

Which DC50 band matches COc1cc(N2CCN(CC3CCN(c4ccc(N5CCC(=O)NC5=O)c(F)c4)CC3)CC2)c(C)cc1Nc1ncc(Br)c(Nc2ccc3nccnc3c2P(C)(C)=O)n1 [Example 96] ?
C

Which DC50 band matches CCc1cc(Nc2ncc(Br)c(Nc3ccc4nccnc4c3P(C)(C)=O)n2)c(OC)cc1N1CCC(N2CCN(C(=O)[C@@H]3CCN(c4ccc5c(c4)C(=O)N(C4CCC(=O)NC4=O)C5=O)C3)CC2)CC1 (some centres unmarked) [Example 65] ?
A

Which DC50 band matches CCc1cc(Nc2ncc(Br)c(Nc3ccc4nccnc4c3P(C)(C)=O)n2)c(OC)cc1N1CCC(N2CCN(C(=O)C3CCN(c4ccc5c(c4)C(C)(C)C(=O)N5C4CCC(=O)NC4=O)CC3)CC2)CC1 (centres unmarked) [Example 219] ?
A

Which DC50 band matches CCc1cc(Nc2ncc(Br)c(Nc3ccc4nccnc4c3P(C)(C)=O)n2)c(OC)cc1N1CCC(N2CCN(CCOc3ccc(C4CCC(=O)NC4=O)cc3)CC2)CC1 (centres unmarked) [Example 17, formate] ?
C

Which DC50 band matches COc1cc(N2CCN(CCC3CCN(c4ccc(C5CCC(=O)NC5=O)cc4)CC3)CC2)c(C)cc1Nc1ncc(Br)c(Nc2ccc3nccnc3c2P(C)(C)=O)n1 (centres unmarked) [Example 90] ?
B

Which DC50 band matches COc1cc(N2CCC(N3CCN(C(=O)C4CCN(CC5CCN(c6ccc7c(c6)C(=O)N(C6CCC(=O)NC6=O)C7=O)CC5)CC4)CC3)CC2)ccc1Nc1ncc(Cl)c(Nc2ccccc2N(C)S(C)(=O)=O)n1 (centres unmarked) [Example 129] ?
C

Which DC50 band matches COc1cc(N2CCC(N(C)CCCOc3ccc(N4CCC(=O)NC4=O)cc3)CC2)c(C)cc1Nc1ncc(Br)c(Nc2ccc3nccnc3c2P(C)(C)=O)n1 [Example 85] ?
C

Which DC50 band matches CCc1cc(Nc2ncc(Br)c(Nc3ccc4nccnc4c3P(C)(C)=O)n2)c(OC)cc1N1CCC(N2CCN(C[C@@H]3CCN(c4ccc(C5CCC(=O)NC5=O)cc4)C3)CC2)CC1 (some centres unmarked) [Example 221] ?
B

Which DC50 band matches CCc1cc(Nc2ncc(Br)c(Nc3ccc4nccnc4c3P(C)(C)=O)n2)c(OC)cc1N1CCC(N2CCN(C(=O)CCN3CCN(c4ccc5c(c4)C(=O)N(C4CCC(=O)NC4=O)C5=O)CC3)CC2)CC1 (centres unmarked) [Example 61] ?
C

Values from patent US20230265116A1
